Molecular target: T1, CEA-derived … (SEQ ID NO: 71)-HLA-A*0201 complex (biotin on the C-terminal biotinylation tag (enzymatic, BirA))
T1 construct: also called soluble biotinylated HLA-A2-peptide complex; not shown: C-terminal biotinylation tag that replaces the transmembrane and cytoplasmic domains
Test: Biacore SPR, pMHC immobilised
Procedure: SPR measures changes in refractive index expressed in response units (RU) near a sensor surface within a small flow cell, a principle that can be used to detect receptor ligand interactions and to analyse their affinity and kinetic parameters. The probe flow cells were prepared by immobilising the pMHC complexes in flow cells via biotin-tag binding. […]
Below is a list of entries, each paired with its recorded Kd value.

Guide cases for Kd, answers given:
binder	Kd
SEQ ID NO 48 (receptor) MAGHLPKPTLWAEPGSVITMDQPVTLRCQGGQETQEYRLYREKKTAPWITRIPQELVKKGQFPIPSITWEHAGRYRCYYGSDTSQWSASSDPLELVVTGVYIKPTLSAQPSPVVNSGGNVTLQCDSQVAFDGFILCKEGEDEHPQCLNSQPHARGSSRAIFSVGPVSPSRRWWYRCYAYDSWAPYEWSLPSDLLELDVDG	≤ 1000 nM
SEQ ID NO 68 (receptor) MGHLPKPTLWAEPGSVITMDQPVTLRCQGGQETQEYRLYREKKTAPWITRIPQELVKKGQFPIPSITWEHAGRYRCYYGSDTSQWSASSDPLELVVTGVYIKPTLSAQPSPVVNSGGNVTLQCDSPFIADGFILCKEGEDEHPQCLNSQPHARGSSRAIFSVGPVSPSRRWWYRCYAYMSWSPYEWSLPSDLLELDVDG	≤ 1000 nM

Next up:
Lookup: Kd lookup needed for SEQ ID NO 37 (receptor) MGHLPKPTLWAEPGSVITMDQPVTLRCQGGQETQEYRLYREKKTAPWITRIPQELVKKGQFPIPSITWEHAGRYRCYYGSDTAGRSESSDPLELVVTGVYIKPTLSAQPSPVVNSGGNVTLQCDSQVAFDGFILCKEGEDEHPQCLNSQPHARGSSRAIFSVGPVSPSRRWWYRCYAYPAWTPYEWSLPSDLLELDVDG , thanks.
Found: ≤ 1000 nM
